Hello, the source for this data is PubChem BioAssay (NCI), in case you need it.

Tested on: SNB-19 CNS
assay-name: NCI tumour cell line growth inhibition, 48 h
Listed below: TGI values for each entry.

Reference set (3 entries):
Cc1cccc2c(=O)c3c(sc12)c(NCCN)nc1ccccc13
2.56 µM
O=c1[nH]c(C2CCCCC2)nc2cc(Cl)ccc12
> 100 µM
C=C1CCC2C(C)(CO)C(O)CCC2(C)C1CC(O)C1=CCOC1=O (stereo not drawn)
> 100 µM

Let's switch to this compound now.
Record summary for COC(C(=O)[C@@H](O)[C@@H](C)O)[C@@H]1Cc2cc3cc(O[C@H]4C[C@@H](O[C@H]5C[C@@H](O)[C@H](O)C(C)O5)[C@H](O)C(C)O4)c(C)c(O)c3c(O)c2C(=O)[C@H]1O[C@H]1C[C@@H](O[C@H]2C[C@@H](O[C@H]3C[C@@H](O)[C@@H](O)C(C)O3)[C@@H](O)C(C)O2)[C@H](O)C(C)O1 (stereo partly drawn) : reported TGI = > 32.5 µM

* * *

Listed below: TGI values for each entry.
Tested on: A498 renal
assay-name: NCI tumour cell line growth inhibition, 48 h

Reference set (3 entries):
COc1ccc2c(c1)N(CCC1CCCCN1C)c1ccccc1S2 (centres undefined)
23.8 µM
CC(=O)O[C@H]1C(=O)[C@@]2(C)[C@H]([C@H](OC(=O)c3ccncc3)[C@]3(O)C[C@H](OC(=O)[C@H](O)[C@@H](NC(=O)c4ccccc4)c4ccccc4)C(C)=C1C3(C)C)[C@]1(OC(C)=O)CO[C@@H]1C[C@@H]2O
> 25 µM
O=C1C(c2c(O)[nH]c3ccc(S(=O)(=O)N(CCO)CCO)cc23)=Nc2ccccc21
> 100 µM

Record summary for O=C1/C(=C/c2ccc(O)cc2)CCc2ccccc21 : reported TGI = 44.5 µM

Record summary for COc1ccc(C2SC(C)C(=O)N2NC(=O)C(O)c2ccccc2)cc1 (centres undefined) : reported TGI = > 100 µM

Record summary for Clc1ccc(CSCc2ccc(Cl)cc2Cl)c(Cl)c1 : reported TGI = > 100 µM

Record summary for CCC(/C=C/c1ccccc1)=N\N=C(\C=C\c1ccccc1)CC : reported TGI = > 100 µM

Record summary for O=C1C=CC(=O)N1CCCCCCCCCCN1C(=O)C=CC1=O : reported TGI = 49.7 µM

Record summary for O=C(Nc1ccc(Cl)cc1Cl)/C(Cl)=C1/Sc2ccccc2NC1=O : reported TGI = > 100 µM

* * *

Tested on: CAKI-1 renal
assay-name: NCI tumour cell line growth inhibition, 48 h
property-measured: TGI (µM)
Provide the reading as a plain figure in µM.

CO[C@H]1C[C@H](O[C@H]2CC[C@]3(C=O)[C@H]4CC[C@]5(C)[C@@H](C6=CC(=O)OC6)CC[C@]5(O)[C@@H]4CC[C@]3(O)C2)O[C@H](C)[C@H]1O[C@@H]1O[C@H](CO[C@@H]2O[C@H](CO)[C@@H](O)[C@H](O)[C@H]2O)[C@@H](O)[C@H](O)[C@H]1O
0.0456

Let's switch to this compound now.
Let me check: COc1ccc2c(c1)N(CCC1CCCCN1C)c1ccccc1S2 (centres undefined) , system CAKI-1 renal, measured TGI is 21.5

* * *

Tested on: ACHN renal
assay-name: NCI tumour cell line growth inhibition, 48 h
property-measured: TGI

Reference set (5 entries):
O=C(NC1CCN(Cc2ccccc2)CC1)c1ccccc1I
> 100 µM
Cc1cc2c(=O)cc(-c3ccc(C(=O)O)cc3)oc2c(C(=O)O)c1C
> 100 µM
CCOC(=O)c1nc2ccc(C(F)(F)F)cc2nc1Nc1ccc(OC)c(OC)c1
> 100 µM
O=c1[nH]c(C2CCCCC2)nc2cc(Cl)ccc12
> 100 µM
CC1(CC(=O)OC(C#C[Si](C)(C)C)Cc2ccccc2)OCCO1 (stereo not given)
> 100 µM

Record summary for O=C1/C(=C/c2ccc(O)cc2)CCc2ccccc21 : reported TGI = 69.5 µM

Record summary for CN(C)N1C(=O)CC2(CCN(CCCC(=O)c3ccc(F)cc3)CC2)C1=O : reported TGI = > 100 µM

Record summary for CC1(C)CC[C@]2(C(=O)O)CC[C@]3(C)C(=CC[C@@H]4[C@@]5(C)CC[C@@H]6OC(C)(C)OC[C@@]6(C)[C@@H]5CC[C@]43C)[C@H]2C1 : reported TGI = 15.7 µM

Record summary for O=C(CCc1cc(-c2ccco2)n(-c2ccc([N+](=O)[O-])cc2[N+](=O)[O-])n1)Nc1ccccc1 : reported TGI = > 100 µM

Record summary for CC(C)[C@H](NC(=O)[C@@H](O)[C@H](N)Cc1ccccc1)C(=O)N[C@@H](Cc1ccccc1)C(=O)O : reported TGI = > 100 µM
